# details: in n-propanol, 298.15 K
metric-name: solubility (mole fraction)
One number for each entry.

-- ask Please supply the value of reported solubility (mole fraction) for the item CN1CCN(C2=Nc3cc(Cl)ccc3Nc3ccccc32)CC1
-- reply 0.00928

* * *

# details: in n-propanol, 303.15 K
metric-name: solubility (mole fraction)
Give bare numbers.

-- ask Please supply the value of reported solubility (mole fraction) for the item CN1CCN(C2=Nc3cc(Cl)ccc3Nc3ccccc32)CC1
-- reply 0.0109

* * *

# details: in n-butyl acetate, 293.15 K
metric-name: solubility (mole fraction)
One number for each entry.

-- ask Please supply the value of reported solubility (mole fraction) for the item CN1CCN(C2=Nc3cc(Cl)ccc3Nc3ccccc32)CC1
-- reply 0.0164

* * *

# details: in n-butyl acetate, 323.15 K
metric-name: solubility (mole fraction)
Numbers only.

-- ask Please supply the value of reported solubility (mole fraction) for the item CN1CCN(C2=Nc3cc(Cl)ccc3Nc3ccccc32)CC1
-- reply 0.0314

* * *

# details: in n-pentanol, 303.15 K
metric-name: solubility (mole fraction)
Numbers only.

-- ask Please supply the value of reported solubility (mole fraction) for the item CN1CCN(C2=Nc3cc(Cl)ccc3Nc3ccccc32)CC1
-- reply 0.0152

* * *

# details: in 2-methoxyethanol, 323.15 K
metric-name: solubility (mole fraction)
Answers are plain numbers.

-- ask Please supply the value of reported solubility (mole fraction) for the item CN1CCN(C2=Nc3cc(Cl)ccc3Nc3ccccc32)CC1
-- reply 0.0596

* * *

# details: in n-butyl acetate, 318.15 K
metric-name: solubility (mole fraction)
One number for each entry.

-- ask Please supply the value of reported solubility (mole fraction) for the item CN1CCN(C2=Nc3cc(Cl)ccc3Nc3ccccc32)CC1
-- reply 0.0276

* * *

# details: in n-propanol, 308.15 K
metric-name: solubility (mole fraction)
Answers are plain numbers.

-- ask Please supply the value of reported solubility (mole fraction) for the item CN1CCN(C2=Nc3cc(Cl)ccc3Nc3ccccc32)CC1
-- reply 0.0123

* * *

# details: in n-butanol, 278.15 K
metric-name: solubility (mole fraction)
Numbers only.

-- ask Please supply the value of reported solubility (mole fraction) for the item CN1CCN(C2=Nc3cc(Cl)ccc3Nc3ccccc32)CC1
-- reply 0.00644

* * *

# details: in n-pentyl acetate, 308.15 K
metric-name: solubility (mole fraction)
Give bare numbers.

-- ask Please supply the value of reported solubility (mole fraction) for the item CN1CCN(C2=Nc3cc(Cl)ccc3Nc3ccccc32)CC1
-- reply 0.024

* * *

# details: in 2-ethoxyethanol, 308.15 K
metric-name: solubility (mole fraction)
One number for each entry.

-- ask Please supply the value of reported solubility (mole fraction) for the item CN1CCN(C2=Nc3cc(Cl)ccc3Nc3ccccc32)CC1
-- reply 0.053

* * *

# details: in n-propanol, 313.15 K
metric-name: solubility (mole fraction)
Numbers only.

-- ask Please supply the value of reported solubility (mole fraction) for the item CN1CCN(C2=Nc3cc(Cl)ccc3Nc3ccccc32)CC1
-- reply 0.0148

* * *

# details: in 2-methoxyethanol, 288.15 K
metric-name: solubility (mole fraction)
Give bare numbers.

-- ask Please supply the value of reported solubility (mole fraction) for the item CN1CCN(C2=Nc3cc(Cl)ccc3Nc3ccccc32)CC1
-- reply 0.0366

* * *

# details: in n-pentyl acetate, 278.15 K
metric-name: solubility (mole fraction)

-- ask Please supply the value of reported solubility (mole fraction) for the item CN1CCN(C2=Nc3cc(Cl)ccc3Nc3ccccc32)CC1
-- reply 0.0131

* * *

# details: in n-pentyl acetate, 293.15 K
metric-name: solubility (mole fraction)
One number for each entry.

-- ask Please supply the value of reported solubility (mole fraction) for the item CN1CCN(C2=Nc3cc(Cl)ccc3Nc3ccccc32)CC1
-- reply 0.0176

* * *

# details: in n-propyl acetate, 308.15 K
metric-name: solubility (mole fraction)
Numbers only.

-- ask Please supply the value of reported solubility (mole fraction) for the item CN1CCN(C2=Nc3cc(Cl)ccc3Nc3ccccc32)CC1
-- reply 0.0219

* * *

# details: in 2-ethoxyethanol, 318.15 K
metric-name: solubility (mole fraction)
Answers are plain numbers.

-- ask Please supply the value of reported solubility (mole fraction) for the item CN1CCN(C2=Nc3cc(Cl)ccc3Nc3ccccc32)CC1
-- reply 0.0612

* * *

# details: in ethanol, 298.15 K
metric-name: solubility (mole fraction)

-- ask Please supply the value of reported solubility (mole fraction) for the item CN1CCN(C2=Nc3cc(Cl)ccc3Nc3ccccc32)CC1
-- reply 0.0072

* * *

# details: in n-propanol, 293.15 K
metric-name: solubility (mole fraction)
Give bare numbers.

-- ask Please supply the value of reported solubility (mole fraction) for the item CN1CCN(C2=Nc3cc(Cl)ccc3Nc3ccccc32)CC1
-- reply 0.0083

* * *

# details: in 2-ethoxyethanol, 278.15 K
metric-name: solubility (mole fraction)
Answers are plain numbers.

-- ask Please supply the value of reported solubility (mole fraction) for the item CN1CCN(C2=Nc3cc(Cl)ccc3Nc3ccccc32)CC1
-- reply 0.0358

* * *

# details: in ethyl acetate, 283.15 K
metric-name: solubility (mole fraction)
Give bare numbers.

-- ask Please supply the value of reported solubility (mole fraction) for the item CN1CCN(C2=Nc3cc(Cl)ccc3Nc3ccccc32)CC1
-- reply 0.01

* * *

# details: in methyl acetate, 303.15 K
metric-name: solubility (mole fraction)
Give bare numbers.

-- ask Please supply the value of reported solubility (mole fraction) for the item CN1CCN(C2=Nc3cc(Cl)ccc3Nc3ccccc32)CC1
-- reply 0.0124

* * *

# details: in n-propyl acetate, 283.15 K
metric-name: solubility (mole fraction)
Answers are plain numbers.

-- ask Please supply the value of reported solubility (mole fraction) for the item CN1CCN(C2=Nc3cc(Cl)ccc3Nc3ccccc32)CC1
-- reply 0.0128

* * *

# details: in 2-propoxyethanol, 293.15 K
metric-name: solubility (mole fraction)

-- ask Please supply the value of reported solubility (mole fraction) for the item CN1CCN(C2=Nc3cc(Cl)ccc3Nc3ccccc32)CC1
-- reply 0.0499

* * *

# details: in n-pentanol, 318.15 K
metric-name: solubility (mole fraction)
Answers are plain numbers.

-- ask Please supply the value of reported solubility (mole fraction) for the item CN1CCN(C2=Nc3cc(Cl)ccc3Nc3ccccc32)CC1
-- reply 0.0234

* * *

# details: in n-butyl acetate, 278.15 K
metric-name: solubility (mole fraction)
One number for each entry.

-- ask Please supply the value of reported solubility (mole fraction) for the item CN1CCN(C2=Nc3cc(Cl)ccc3Nc3ccccc32)CC1
-- reply 0.0121

* * *

# details: in ethyl acetate, 288.15 K
metric-name: solubility (mole fraction)

-- ask Please supply the value of reported solubility (mole fraction) for the item CN1CCN(C2=Nc3cc(Cl)ccc3Nc3ccccc32)CC1
-- reply 0.0114

* * *

# details: in ethyl acetate, 318.15 K
metric-name: solubility (mole fraction)
One number for each entry.

-- ask Please supply the value of reported solubility (mole fraction) for the item CN1CCN(C2=Nc3cc(Cl)ccc3Nc3ccccc32)CC1
-- reply 0.0233

* * *

# details: in 2-propoxyethanol, 303.15 K
metric-name: solubility (mole fraction)
Numbers only.

-- ask Please supply the value of reported solubility (mole fraction) for the item CN1CCN(C2=Nc3cc(Cl)ccc3Nc3ccccc32)CC1
-- reply 0.0548

* * *

# details: in n-propyl acetate, 278.15 K
metric-name: solubility (mole fraction)
Give bare numbers.

-- ask Please supply the value of reported solubility (mole fraction) for the item CN1CCN(C2=Nc3cc(Cl)ccc3Nc3ccccc32)CC1
-- reply 0.0114

* * *

# details: in n-pentyl acetate, 303.15 K
metric-name: solubility (mole fraction)
Answers are plain numbers.

-- ask Please supply the value of reported solubility (mole fraction) for the item CN1CCN(C2=Nc3cc(Cl)ccc3Nc3ccccc32)CC1
-- reply 0.0221

* * *

# details: in methyl acetate, 318.15 K
metric-name: solubility (mole fraction)

-- ask Please supply the value of reported solubility (mole fraction) for the item CN1CCN(C2=Nc3cc(Cl)ccc3Nc3ccccc32)CC1
-- reply 0.0188

* * *

# details: in 2-ethoxyethanol, 283.15 K
metric-name: solubility (mole fraction)
Give bare numbers.

-- ask Please supply the value of reported solubility (mole fraction) for the item CN1CCN(C2=Nc3cc(Cl)ccc3Nc3ccccc32)CC1
-- reply 0.0391

* * *

# details: in n-butanol, 293.15 K
metric-name: solubility (mole fraction)

-- ask Please supply the value of reported solubility (mole fraction) for the item CN1CCN(C2=Nc3cc(Cl)ccc3Nc3ccccc32)CC1
-- reply 0.00972

* * *

# details: in 2-propoxyethanol, 313.15 K
metric-name: solubility (mole fraction)
Numbers only.

-- ask Please supply the value of reported solubility (mole fraction) for the item CN1CCN(C2=Nc3cc(Cl)ccc3Nc3ccccc32)CC1
-- reply 0.0612

* * *

# details: in n-propyl acetate, 298.15 K
metric-name: solubility (mole fraction)

-- ask Please supply the value of reported solubility (mole fraction) for the item CN1CCN(C2=Nc3cc(Cl)ccc3Nc3ccccc32)CC1
-- reply 0.0174

* * *

# details: in methyl acetate, 293.15 K
metric-name: solubility (mole fraction)
Give bare numbers.

-- ask Please supply the value of reported solubility (mole fraction) for the item CN1CCN(C2=Nc3cc(Cl)ccc3Nc3ccccc32)CC1
-- reply 0.0094

* * *

# details: in n-pentyl acetate, 283.15 K
metric-name: solubility (mole fraction)

-- ask Please supply the value of reported solubility (mole fraction) for the item CN1CCN(C2=Nc3cc(Cl)ccc3Nc3ccccc32)CC1
-- reply 0.0143
